Cited source: BindingDB's records for doi:10.7270/Q2CZ35MZ

# tested on: Bcl-2-like protein 2 (Homo sapiens)
# Sequence (Q92843 whole entry): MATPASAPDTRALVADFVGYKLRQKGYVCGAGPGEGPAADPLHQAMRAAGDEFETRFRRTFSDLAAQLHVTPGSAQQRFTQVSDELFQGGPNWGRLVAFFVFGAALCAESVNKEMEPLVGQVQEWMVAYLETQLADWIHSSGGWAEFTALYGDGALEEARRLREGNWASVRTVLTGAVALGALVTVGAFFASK
# assay overview: Bcl-W/Bim complex disruptors – biochemical, multiplexed, bead-based flow cytometry, HTS hits, confirmation (AID 2081)
# cond: inactive by the depositor's call
measured quantity: EC50 (µM)

- compound string: "CCOc1ccccc1CNc1ccc(O)cc1"
  units symbol: "µM"
  EC50: 26
- compound string: "Clc1nc(NCc2cccnc2)nc(N2CCOCC2)n1"
  units symbol: "µM"
  EC50: 15.5
- compound string: "Oc1ccc(NCc2ccccc2OCc2ccccc2)cc1"
  units symbol: "µM"
  EC50: 20.5
